# PROTOCOL NOTES: Volume of distribution of the compound
# PROTOCOL CONDITIONS: in vivo
EXPERIMENTAL READOUT: Vd (L/kg)

COC(=O)C1=C(C)NC(C)=C(C(=O)OC)C1c1ccccc1[N+](=O)[O-] [NIFEDIPINE] :: 1
CO[C@H]1/C=C/O[C@@]2(C)Oc3c(C)c(O)c4c(c3C2=O)C2=NC3(CCN(CC(C)C)CC3)NC2=C(NC(=O)/C(C)=C\C=C\[C@H](C)[C@H](O)[C@@H](C)[C@@H](O)[C@@H](C)[C@H](OC(C)=O)[C@@H]1C)C4=O [RIFABUTIN] :: 266
CO[C@H]1/C=C/O[C@@]2(C)Oc3c(C)c(O)c4c(O)c(c(/C=N/N5CCN(C)CC5)c(O)c4c3C2=O)NC(=O)/C(C)=C\C=C\[C@H](C)[C@H](O)[C@@H](C)[C@@H](O)[C@@H](C)[C@H](OC(C)=O)[C@@H]1C [RIFAMPIN] :: 8.8

[P] CCOC(=O)C1=C(C)NC(C)=C(C(=O)OC)C1c1cccc([N+](=O)[O-])c1 (stereo not given) [NITRENDIPINE]
[Q] CO[C@H]1/C=C/O[C@@]2(C)Oc3c(C)c(O)c4c(O)c(cc(O)c4c3C2=O)NC(=O)/C(C)=C\C=C\[C@H](C)[C@H](O)[C@@H](C)[C@@H](O)[C@@H](C)[C@H](OC(C)=O)[C@@H]1C [RIFAMYCIN]
Which shows the larger Vd value: P or Q ? Reply briefly: the label of your chosen item.
P
(P: 3.8 L/kg, Q: 1.2 L/kg)

###

# PROTOCOL NOTES: Plasma clearance of the compound
EXPERIMENTAL READOUT: clearance (mL/min/kg)

CO[C@H]1/C=C/O[C@@]2(C)Oc3c(C)c(O)c4c(c3C2=O)C2=NC3(CCN(CC(C)C)CC3)NC2=C(NC(=O)/C(C)=C\C=C\[C@H](C)[C@H](O)[C@@H](C)[C@@H](O)[C@@H](C)[C@H](OC(C)=O)[C@@H]1C)C4=O :: 80

[1] CCOC(=O)C1=C(C)NC(C)=C(C(=O)OC)C1c1cccc([N+](=O)[O-])c1 (centres undefined)
[2] CO[C@H]1/C=C/O[C@@]2(C)Oc3c(C)c(O)c4c(O)c(c(/C=N/N5CCN(C)CC5)c(O)c4c3C2=O)NC(=O)/C(C)=C\C=C\[C@H](C)[C@H](O)[C@@H](C)[C@@H](O)[C@@H](C)[C@H](OC(C)=O)[C@@H]1C
[3] CO[C@H]1/C=C/O[C@@]2(C)Oc3c(C)c(O)c4c(O)c(cc(O)c4c3C2=O)NC(=O)/C(C)=C\C=C\[C@H](C)[C@H](O)[C@@H](C)[C@@H](O)[C@@H](C)[C@H](OC(C)=O)[C@@H]1C
Hi! Can you put these in order of clearance, lowest number first? Enter labels, ranked according to the request.
1, 2, 3
(1: 21 mL/min/kg, 2: 32 mL/min/kg, 3: 80 mL/min/kg)

###

# PROTOCOL NOTES: Half life was measured as time taken to decrease half of its initial concentration
EXPERIMENTAL READOUT: half-life (h)

COC(=O)C1=C(C)NC(C)=C(C(=O)OC)C1c1ccccc1[N+](=O)[O-] :: 1.9

[A] CO[C@H]1/C=C/O[C@@]2(C)Oc3c(C)c(O)c4c(O)c(cc(O)c4c3C2=O)NC(=O)/C(C)=C\C=C\[C@H](C)[C@H](O)[C@@H](C)[C@@H](O)[C@@H](C)[C@H](OC(C)=O)[C@@H]1C
[B] CO[C@H]1/C=C/O[C@@]2(C)Oc3c(C)c(O)c4c(c3C2=O)C2=NC3(CCN(CC(C)C)CC3)NC2=C(NC(=O)/C(C)=C\C=C\[C@H](C)[C@H](O)[C@@H](C)[C@@H](O)[C@@H](C)[C@H](OC(C)=O)[C@@H]1C)C4=O
[C] CCOC(=O)C1=C(C)NC(C)=C(C(=O)OC)C1c1cccc([N+](=O)[O-])c1 (centres undefined)
# rank_down: sort by half-life, max first Write the labels in rank order as requested.
B, C, A
